Each item that follows carries a reported Relative Proliferation Fold Change NKL 1:50.
Target: T1, orthogonal hCD122 receptor (hoRb), hCD122 with H133D and Y134F (human, UniProt P14784 27-550); further: reference of the scale not given here
T1 sequence: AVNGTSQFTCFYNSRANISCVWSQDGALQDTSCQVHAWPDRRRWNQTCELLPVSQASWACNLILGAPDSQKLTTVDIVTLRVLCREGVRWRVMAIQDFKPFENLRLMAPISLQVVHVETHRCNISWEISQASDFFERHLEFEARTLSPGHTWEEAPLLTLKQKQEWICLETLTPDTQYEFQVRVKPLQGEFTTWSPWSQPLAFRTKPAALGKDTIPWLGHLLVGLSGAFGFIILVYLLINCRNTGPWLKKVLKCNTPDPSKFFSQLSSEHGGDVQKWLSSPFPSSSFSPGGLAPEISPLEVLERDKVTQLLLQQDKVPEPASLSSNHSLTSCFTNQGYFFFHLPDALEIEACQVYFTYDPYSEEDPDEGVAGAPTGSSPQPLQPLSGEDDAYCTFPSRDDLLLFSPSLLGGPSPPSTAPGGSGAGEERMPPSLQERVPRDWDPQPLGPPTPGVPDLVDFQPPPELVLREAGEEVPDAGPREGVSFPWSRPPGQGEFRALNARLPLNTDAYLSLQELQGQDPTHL
Assay: cell-based or functional assay
parameter: Relative Proliferation Fold Change NKL 1:50

binder="Q74N, SQVLKA (ligand) APTSSSTKKTQLQLSQLLVLLKAILNGINNYKNPKLTRMLTFKFYMPKKATELKHLQCLEEELKPLEEVLNLANSKNFHLRPRDLISNINVIVLELKGSETTFMCEYADETATIVEFLNRWITFCQSIISTLT" observedvalue="1.67 fold"
binder="L18E, SQVLKA (ligand) APTSSSTKKTQLQLSQLEVLLKAILNGINNYKNPKLTRMLTFKFYMPKKATELKHLQCLEEELKPLEEVLNLAQSKNFHLRPRDLISNINVIVLELKGSETTFMCEYADETATIVEFLNRWITFCQSIISTLT" observedvalue="0.51 fold"
binder="Q126I, SQVLKA (ligand) APTSSSTKKTQLQLSQLLVLLKAILNGINNYKNPKLTRMLTFKFYMPKKATELKHLQCLEEELKPLEEVLNLAQSKNFHLRPRDLISNINVIVLELKGSETTFMCEYADETATIVEFLNRWITFCISIISTLT" observedvalue="1.25 fold"
binder="Q126D, SQVLKA (ligand) APTSSSTKKTQLQLSQLLVLLKAILNGINNYKNPKLTRMLTFKFYMPKKATELKHLQCLEEELKPLEEVLNLAQSKNFHLRPRDLISNINVIVLELKGSETTFMCEYADETATIVEFLNRWITFCDSIISTLT" observedvalue="0.46 fold"
binder="L85V, SQVLKA (ligand) APTSSSTKKTQLQLSQLLVLLKAILNGINNYKNPKLTRMLTFKFYMPKKATELKHLQCLEEELKPLEEVLNLAQSKNFHLRPRDVISNINVIVLELKGSETTFMCEYADETATIVEFLNRWITFCQSIISTLT" observedvalue="1.71 fold"
binder="ΔL19, SQ_LKA (ligand) APTSSSTKKTQLQLSQLLLLKAILNGINNYKNPKLTRMLTFKFYMPKKATELKHLQCLEEELKPLEEVLNLAQSKNFHLRPRDLISNINVIVLELKGSETTFMCEYADETATIVEFLNRWITFCQSIISTLT" observedvalue="0.59 fold"
binder="ΔP2, SQVLKA (ligand) ATSSSTKKTQLQLSQLLVLLKAILNGINNYKNPKLTRMLTFKFYMPKKATELKHLQCLEEELKPLEEVLNLAQSKNFHLRPRDLISNINVIVLELKGSETTFMCEYADETATIVEFLNRWITFCQSIISTLT" observedvalue="1.77 fold"
binder="Q126G, SQVLKA (ligand) APTSSSTKKTQLQLSQLLVLLKAILNGINNYKNPKLTRMLTFKFYMPKKATELKHLQCLEEELKPLEEVLNLAQSKNFHLRPRDLISNINVIVLELKGSETTFMCEYADETATIVEFLNRWITFCGSIISTLT" observedvalue="0.45 fold"
binder="T3G, SQVLKA (ligand) APGSSSTKKTQLQLSQLLVLLKAILNGINNYKNPKLTRMLTFKFYMPKKATELKHLQCLEEELKPLEEVLNLAQSKNFHLRPRDLISNINVIVLELKGSETTFMCEYADETATIVEFLNRWITFCQSIISTLT" observedvalue="1.92 fold"
binder="C125A, SQVLKA (ligand) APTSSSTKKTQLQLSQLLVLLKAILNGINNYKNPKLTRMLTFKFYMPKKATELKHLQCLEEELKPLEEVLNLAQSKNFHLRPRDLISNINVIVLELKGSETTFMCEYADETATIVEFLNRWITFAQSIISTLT" observedvalue="1.95 fold"
binder="V91K, SQVLKA (ligand) APTSSSTKKTQLQLSQLLVLLKAILNGINNYKNPKLTRMLTFKFYMPKKATELKHLQCLEEELKPLEEVLNLAQSKNFHLRPRDLISNINKIVLELKGSETTFMCEYADETATIVEFLNRWITFCQSIISTLT" observedvalue="0.53 fold"
binder="SQVLKW (ligand) APTSSSTKKTQLQLSQLLVLLKWILNGINNYKNPKLTRMLTFKFYMPKKATELKHLQCLEEELKPLEEVLNLAQSKNFHLRPRDLISNINVIVLELKGSETTFMCEYADETATIVEFLNRWITFCQSIISTLT" observedvalue="1.33 fold"
binder="SQVLKL (ligand) APTSSSTKKTQLQLSQLLVLLKLILNGINNYKNPKLTRMLTFKFYMPKKATELKHLQCLEEELKPLEEVLNLAQSKNFHLRPRDLISNINVIVLELKGSETTFMCEYADETATIVEFLNRWITFCQSIISTLT" observedvalue="2.26 fold"
binder="ΔG27, SQVLKA (ligand) APTSSSTKKTQLQLSQLLVLLKAILNINNYKNPKLTRMLTFKFYMPKKATELKHLQCLEEELKPLEEVLNLAQSKNFHLRPRDLISNINVIVLELKGSETTFMCEYADETATIVEFLNRWITFCQSIISTLT" observedvalue="1.04 fold"
